Catalogue of pIC50 values
System: SF-295
Experiment: Cytotoxicity against human SF295 cells after 72 hrs by MTT assay
Assay type: functional, cell-based
Details: SF-295, 72 h
pIC50: −log10 of the molar value.

Below, each entry is followed by its recorded pIC50 result.
{"Compound": "CC(C)CCC1=C(O)C(=O)c2ccccc2C1=O", "pIC50": "< 4.69"}
{"Compound": "O=C1c2ccccc2C(=O)c2c1ccc1nc(-c3ccc(F)cc3)[nH]c21", "pIC50": "< 4.84"}
{"Compound": "Cc1ccccc1-c1nc2ccc3c(c2[nH]1)C(=O)c1ccccc1C3=O", "pIC50": "< 4.83"}

Recorded result, CC1(C)OC2=C(C(=O)C(=O)c3ccccc32)[C@H](n2cc(-c3ccc(F)cc3)nn2)[C@H]1Br , pIC50: 5.75

Recorded result, O=C1c2ccccc2C(=O)c2c1ccc1nc(-c3ccc(O)cc3)[nH]c21 , pIC50: < 4.83

Recorded result, O=C1c2ccccc2C(=O)c2c1ccc1nc(-c3cccc(F)c3)[nH]c21 , pIC50: < 4.84

###

Test system: HL-60
Experiment: Cytotoxicity against human HL60 cells after 72 hrs by MTT assay
Assay type: functional, cell-based
Conditions: HL-60, 72 h
Quantity Kind: IC50

{"Molecule": "CC(C)CC1=C(O)C(=O)c2ccccc2C1=O", "Observed": "> 21.7 µM"}
{"Molecule": "CC(C)CCC1=C(OC2(CCC(C)C)C(=O)C(=O)C3=C(CCCC3)C2=O)C(=O)C2=C(CCCC2)C1=O (stereo not given)", "Observed": "> 10.1 µM"}
{"Molecule": "O=C1c2ccccc2C(=O)c2c1ccc1nc(-c3ccccc3)[nH]c21", "Observed": "> 15.4 µM"}
{"Molecule": "O=C1c2ccccc2C(=O)c2c1ccc1nc(-c3ccc(O)cc3)[nH]c21", "Observed": "> 14.7 µM"}

// switching to the query molecule
Recorded result, O=C1c2ccccc2C(=O)c2c1ccc1nc(-c3cccc(F)c3)[nH]c21 , IC50: > 14.6 µM

###

System: MDA-MB-435
Test: Cytotoxicity against human MDA-MB-435 cells after 72 hrs by MTT assay
Format: functional, cell-based
Conditions: MDA-MB-435, 72 h
Quantity Kind: IC50

Below, each entry is followed by its recorded IC50 result.
{"Smiles Repr": "CC1=C(OC2(C)C(=O)c3ccccc3C2=O)C(=O)c2ccccc2C1=O", "Observed": "> 14.4 µM"}
{"Smiles Repr": "O=C1c2ccccc2C(=O)c2c1ccc1nc(-c3ccccc3O)[nH]c21", "Observed": "> 14.7 µM"}
{"Smiles Repr": "CC(C)CCC1=C(O)C(=O)c2ccccc2C1=O", "Observed": "> 20.5 µM"}
{"Smiles Repr": "Cc1ccc(-c2nc3ccc4c(c3[nH]2)C(=O)c2ccccc2C4=O)cc1", "Observed": "> 14.8 µM"}

Recorded result, CC(C)CC1=C(O)C(=O)c2ccccc2C1=O , IC50: > 21.7 µM

###

Catalogue of IC50 values
System: SF-295
Assay: Cytotoxicity against human SF295 cells after 72 hrs by MTT assay
Format: functional, cell-based
Details: SF-295, 72 h

Below, each entry is followed by its recorded IC50 result.
{"Compound": "C=CCC1=C(OC2(CC=C)C(=O)C(=O)c3ccccc3C2=O)C(=O)c2ccccc2C1=O (stereo not drawn)", "Assayed System": "SF-295", "Observed": "> 11.7 µM"}
{"Compound": "CC1(C)OC2=C(C(=O)C(=O)c3ccccc32)[C@H](N=[N+]=[N-])[C@H]1Br", "Assayed System": "SF-295", "Observed": "1.93 µM"}

Recorded result, Cc1cccc(-c2nc3ccc4c(c3[nH]2)C(=O)c2ccccc2C4=O)c1 , IC50: > 14.8 µM

###

Tested on: SF-295
Experiment: Cytotoxicity against human SF295 cells after 72 hrs by MTT assay
Assay type: functional, cell-based
Settings: SF-295, 72 h
pIC50: −log10 of the molar value.
Catalogue of pIC50 values

{"Molecule": "CC(C)CCC1=C(OC2(CCC(C)C)C(=O)C(=O)c3ccccc3C2=O)C(=O)c2ccccc2C1=O (stereo not given)", "Quantity Kind": "pIC50", "Observed": "< 4.99"}
{"Molecule": "O=C1c2ccccc2C(=O)c2c1ccc1nc(-c3ccccc3F)[nH]c21", "Quantity Kind": "pIC50", "Observed": "< 4.84"}

Recorded result, CCCC1=C(OC2(CCC)C(=O)C(=O)C3=C(CCCC3)C2=O)C(=O)C2=C(CCCC2)C1=O (stereo not given) , pIC50: < 4.94

Recorded result, CC(C)CCC1=C(OC2(CCC(C)C)C(=O)C(=O)C3=C(CCCC3)C2=O)C(=O)C2=C(CCCC2)C1=O (stereo not given) , pIC50: < 5.00

Recorded result, CC(C)CC1=C(O)C(=O)c2ccccc2C1=O , pIC50: < 4.66
